Data credit: paper PMC10786891

Kd: recorded values
Target: T1, EsCas13d, nuclease-dead (Eubacterium siraeum, UniProt B0MS50, R295A;H300A;R849A;H854A)
T1 sequence: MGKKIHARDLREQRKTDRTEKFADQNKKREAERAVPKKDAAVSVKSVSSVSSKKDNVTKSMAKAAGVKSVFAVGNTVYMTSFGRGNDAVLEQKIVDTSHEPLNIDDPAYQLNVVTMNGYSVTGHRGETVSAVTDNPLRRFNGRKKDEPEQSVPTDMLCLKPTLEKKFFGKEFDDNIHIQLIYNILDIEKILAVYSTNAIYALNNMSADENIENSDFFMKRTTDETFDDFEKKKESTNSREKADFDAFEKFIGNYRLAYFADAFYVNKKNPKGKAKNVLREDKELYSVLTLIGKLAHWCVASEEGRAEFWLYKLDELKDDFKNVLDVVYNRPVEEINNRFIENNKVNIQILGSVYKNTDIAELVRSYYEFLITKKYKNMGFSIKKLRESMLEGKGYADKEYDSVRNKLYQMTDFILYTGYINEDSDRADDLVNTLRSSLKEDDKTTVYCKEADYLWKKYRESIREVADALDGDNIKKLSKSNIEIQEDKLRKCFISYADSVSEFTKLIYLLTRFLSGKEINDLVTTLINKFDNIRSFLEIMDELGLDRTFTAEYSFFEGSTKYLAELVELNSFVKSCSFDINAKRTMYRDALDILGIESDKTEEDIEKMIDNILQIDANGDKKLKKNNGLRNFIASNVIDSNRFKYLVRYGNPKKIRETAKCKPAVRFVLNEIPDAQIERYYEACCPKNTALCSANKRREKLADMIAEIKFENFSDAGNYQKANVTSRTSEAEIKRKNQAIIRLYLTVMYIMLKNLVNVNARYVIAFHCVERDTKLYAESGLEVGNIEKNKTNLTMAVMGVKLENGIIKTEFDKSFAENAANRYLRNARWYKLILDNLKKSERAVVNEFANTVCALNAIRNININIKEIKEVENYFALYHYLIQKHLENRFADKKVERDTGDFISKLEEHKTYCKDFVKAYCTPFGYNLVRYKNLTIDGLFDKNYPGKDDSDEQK
Assay: crRNA (strand 1, pre-loaded); Mg2+; 40 mM Tris-HCl pH 7.5, 150 mM NaCl, 6 mM MgCl2, 1 mM DTT, 0.1% Tween-20, 0.2 mg/ml BSA; 25 C; 10 min per concentration, then washed
Conditions: tags: His6-TwinStrep-SUMO cleaved; N-terminal SNAP kept (SNAP-Surface 488); label: 3' end held by stalled T7 RNA polymerase

# binder, reading unit, Kd
measured = [
    ("target 1 insU 3' of 12,insU 3' of 4 (mixed) RNA 1: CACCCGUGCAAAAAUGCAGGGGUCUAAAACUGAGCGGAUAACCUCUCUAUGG RNA 2: GGGAAUGGAUCCACAUCUACGAAUUCGUACCAUAGAGAGGUUUAUCCGCUUCACCGAGAUCGGAAGAGCACACGU", "nM", 5.68),
    ("target 1 A16C,G17A (mixed) RNA 1: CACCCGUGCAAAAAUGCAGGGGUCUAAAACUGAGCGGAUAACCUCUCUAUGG RNA 2: GGGAAUGGAUCCACAUCUACGAAUUCGUACCAUAACGAGGUUAUCCGCUCACCGAGAUCGGAAGAGCACACGU", "nM", 52),
    ("target 3 insA 3' of 7,insU 3' of 4 (mixed) RNA 1: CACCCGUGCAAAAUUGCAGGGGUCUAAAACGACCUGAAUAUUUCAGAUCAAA RNA 2: GGGAAUGGAUCCACAUCUACGAAUUCGUUUUUGAUCUGAAAUAUUACAGUGUCUGCAGAUCGGAAGAGCACACGU", "nM", 12.7),
    ("target 1 MT 5'PFS UUU 3'PFS AUC (mixed) RNA 1: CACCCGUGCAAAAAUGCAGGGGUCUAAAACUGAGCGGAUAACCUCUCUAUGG RNA 2: GGGAAUGGAUCCACAUCUACGAAUUCUUUCCAUAGAGAGGUUAUCCGCUCAAUCAGAUCGGAAGAGCACACGU", "nM", 55),
    ("target 1 insU 3' of 7,insG 3' of 7 (mixed) RNA 1: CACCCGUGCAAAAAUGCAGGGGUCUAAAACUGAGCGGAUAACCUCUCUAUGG RNA 2: GGGAAUGGAUCCACAUCUACGAAUUCGUACCAUAGAGAGGUUAUCUGCGCUCACCGAGAUCGGAAGAGCACACGU", "nM", 9.1),
    ("target 1 MT 5'PFS GCA 3'PFS UAG (mixed) RNA 1: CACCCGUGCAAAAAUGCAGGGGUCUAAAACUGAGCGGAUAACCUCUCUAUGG RNA 2: GGGAAUGGAUCCACAUCUACGAAUUCGCACCAUAGAGAGGUUAUCCGCUCAUAGAGAUCGGAAGAGCACACGU", "nM", 19.4),
    ("target 2 MT 5'PFS AGG 3'PFS CAU (mixed) RNA 1: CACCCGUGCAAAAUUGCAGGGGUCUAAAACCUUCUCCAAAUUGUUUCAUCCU RNA 2: GGGAAUGGAUCCACAUCUACGAAUUCAGGAGGAUGAAACAAUUUGGAGAAGCAUAGAUCGGAAGAGCACACGU", "nM", 4.6),
    ("target 2 MT 5'PFS AUU 3'PFS CCA (mixed) RNA 1: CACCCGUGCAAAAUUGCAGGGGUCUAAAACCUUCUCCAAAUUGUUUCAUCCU RNA 2: GGGAAUGGAUCCACAUCUACGAAUUCAUUAGGAUGAAACAAUUUGGAGAAGCCAAGAUCGGAAGAGCACACGU", "nM", 14.8),
    ("target 1 U3A,U19C (mixed) RNA 1: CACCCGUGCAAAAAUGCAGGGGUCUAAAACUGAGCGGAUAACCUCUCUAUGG RNA 2: GGGAAUGGAUCCACAUCUACGAAUUCGUACCACAGAGAGGUUAUCCGCACACCGAGAUCGGAAGAGCACACGU", "nM", 24.2),
    ("target 2 MT 5'PFS GUG 3'PFS CAA (mixed) RNA 1: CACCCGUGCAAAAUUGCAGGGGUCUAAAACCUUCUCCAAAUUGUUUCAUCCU RNA 2: GGGAAUGGAUCCACAUCUACGAAUUCGUGAGGAUGAAACAAUUUGGAGAAGCAAAGAUCGGAAGAGCACACGU", "nM", 6.8),
    ("target 3 insC 3' of 21,insC 3' of 3 (mixed) RNA 1: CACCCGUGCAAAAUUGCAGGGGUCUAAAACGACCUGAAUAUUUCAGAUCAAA RNA 2: GGGAAUGGAUCCACAUCUACGAAUUCGUUUUCUGAUCUGAAAUAUUCAGGCUCUGCAGAUCGGAAGAGCACACGU", "nM", 80),
    ("target 2 MT 5'PFS GCC 3'PFS AGG (mixed) RNA 1: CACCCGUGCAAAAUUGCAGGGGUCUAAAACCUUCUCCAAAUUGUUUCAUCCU RNA 2: GGGAAUGGAUCCACAUCUACGAAUUCGCCAGGAUGAAACAAUUUGGAGAAGAGGAGAUCGGAAGAGCACACGU", "nM", 16.4),
    ("target 1 C2A,C21U (mixed) RNA 1: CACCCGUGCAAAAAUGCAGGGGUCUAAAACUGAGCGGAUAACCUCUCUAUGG RNA 2: GGGAAUGGAUCCACAUCUACGAAUUCGUACUAUAGAGAGGUUAUCCGCUAACCGAGAUCGGAAGAGCACACGU", "nM", 8.2),
    ("target 1 MT 5'PFS ACG 3'PFS UGA (mixed) RNA 1: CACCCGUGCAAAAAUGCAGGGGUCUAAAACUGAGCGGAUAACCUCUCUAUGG RNA 2: GGGAAUGGAUCCACAUCUACGAAUUCACGCCAUAGAGAGGUUAUCCGCUCAUGAAGAUCGGAAGAGCACACGU", "nM", 20.5),
]
